The reported numbers originate from patent US20230012273A1.

# test target: T1, full-length human SIRPαV1 N→E on Expi-CHO cells (human, UniProt P78324 31-504)
# T1 construct: the entry already carries the change (TKRN to TKRE)
# T1 sequence (P78324 31-504 N100E): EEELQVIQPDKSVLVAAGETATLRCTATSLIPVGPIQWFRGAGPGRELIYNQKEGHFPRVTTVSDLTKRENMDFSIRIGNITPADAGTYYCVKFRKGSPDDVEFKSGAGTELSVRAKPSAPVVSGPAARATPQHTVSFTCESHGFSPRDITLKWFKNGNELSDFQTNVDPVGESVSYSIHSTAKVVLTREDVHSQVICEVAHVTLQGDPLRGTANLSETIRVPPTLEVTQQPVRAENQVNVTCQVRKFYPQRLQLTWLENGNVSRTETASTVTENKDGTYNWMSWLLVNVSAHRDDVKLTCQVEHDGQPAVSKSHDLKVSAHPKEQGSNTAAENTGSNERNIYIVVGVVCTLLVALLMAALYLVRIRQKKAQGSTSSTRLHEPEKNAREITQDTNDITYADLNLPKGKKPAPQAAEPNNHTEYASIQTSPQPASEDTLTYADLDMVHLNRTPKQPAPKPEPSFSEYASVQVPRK
# assay remarks: flow cytometry, Expi-CHO cells
Hi there, I'd appreciate the recorded EC50 for every entry that follows.
Numbers only, in nM.

Recorded results for 3 binders are shown here.
Look up EC50: Anti-SIRPα antibody KWAR23 (antibody, V domains shown) VH: EVQLQQSGAELVKPGASVKLSCTASGFNIKDYYIHWVQQRTEQGLEWIGRIDPEDGETKYAPKFQDKATITADTSSNTAYLHLSSLTSEDTAVYYCARWGAYWGQGTLVTVSS VL: QIVLTQSPAIMSASPGEKVTLTCSASSSVSSSYLYWYQQKPGSSPKLWIYSTSNLASGVPARFSGSGSGTSYSLTISSMEAEDAASYFCHQWSSYPRTFGAGTKLELK 0.5

For Antibody B (antibody, human IgG1, kappa, L234A L235A, V domains shown) VH: QVQLVQSGAEVKKPGASVKVSCKASGYTFTGNYMHWVRQAPGQGLEWMGWINPNSGGTNYAQKFQGRVTMTRDTSISTAYMELSRLRSDDTAVYYCVSGSGWYENYYYYGMDVWGQGTTVTVSS VL: DIQMTQSPSSVSASVGDRVTITCRASQGISSWLAWYQQKPGKAPKLLIYAESSLQSGVPSRFSGSGSGTDFTLTISSLQPEDFATYYCQQANSFPLTFGGGTKVEIKR , what is its reported EC50? 4.5

Look at this binder and give its reported EC50. Antibody D (antibody, human IgG1, kappa, L234A L235A, V domains shown) VH: EVQLVESGGGLVQPGGSLRLSCAASGFTFSSFDMHWVRQPTGKGLEWVSTIGIAGDTYFPGSVKGRFTISRENAKNSLYLQMNSLRAGDTAVYYCARGGNWDDALDIWGQGTMVTVSS VL: DIQMTQSPSSLSASVGDRVTITCRASQDINNYLAWFQQKPGKAPKSLIYTASSLQSGVPSKFSGSGSGTDFTLTISSLQPEDFATYYCQQYNTYPYTFGQGTKLEIKR 0.3

Next:
Record request: EC50 value, item Antibody E22 (antibody, human IgG1, kappa, L234A L235A, V domains shown) VH: QVQLQESGPGLVKPSETLSLTCTVSGGSIRDYYWSWIRQPPGKGLEWIGFIYYNGRTFYQSSLKSRVTISLDTSKNQFSLKMTSVTAADTAVYYCARVRAYSGIGLDGTDVWGQGTTVTVSS VL: DIVMTQSPLSLPVTPGEPASISCRSSQSLLYSTGYTYLDWYLQRPGQSPQLLIYGGSSRASGVPDRFSGSGSGTDFTLKISRVEAEDVGVFYCGQALQTPLTFGQGTKVEIKR 0.9
